Provenance of the data: patent US9963456B2

Listing of entries alongside the reported IC50.
target: NAE (heterodimer of APPBP1 and UBA3) (Homo sapiens (Human), UniProt Q8TBC4); experiment: Nedd8 conjugation inhibitory activity (AlphaScreen assay); format: biochemical; conditions: purified NAE, GST-UBC12, Biotin-Nedd8, ATP
Sequence (Q8TBC4 whole entry): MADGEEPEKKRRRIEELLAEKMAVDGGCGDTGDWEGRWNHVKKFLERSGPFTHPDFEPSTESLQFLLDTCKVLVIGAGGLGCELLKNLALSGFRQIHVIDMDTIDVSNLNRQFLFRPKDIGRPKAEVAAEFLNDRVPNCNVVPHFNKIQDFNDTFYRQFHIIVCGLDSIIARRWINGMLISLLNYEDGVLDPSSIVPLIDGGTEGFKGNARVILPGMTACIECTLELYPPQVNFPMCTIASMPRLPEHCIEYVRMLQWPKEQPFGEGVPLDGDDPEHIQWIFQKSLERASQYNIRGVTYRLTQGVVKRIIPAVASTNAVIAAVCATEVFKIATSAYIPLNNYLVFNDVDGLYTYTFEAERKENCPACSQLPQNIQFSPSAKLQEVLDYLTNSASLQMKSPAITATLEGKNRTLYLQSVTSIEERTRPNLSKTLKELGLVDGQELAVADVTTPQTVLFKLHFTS
Sequence (Q13564 whole entry partner): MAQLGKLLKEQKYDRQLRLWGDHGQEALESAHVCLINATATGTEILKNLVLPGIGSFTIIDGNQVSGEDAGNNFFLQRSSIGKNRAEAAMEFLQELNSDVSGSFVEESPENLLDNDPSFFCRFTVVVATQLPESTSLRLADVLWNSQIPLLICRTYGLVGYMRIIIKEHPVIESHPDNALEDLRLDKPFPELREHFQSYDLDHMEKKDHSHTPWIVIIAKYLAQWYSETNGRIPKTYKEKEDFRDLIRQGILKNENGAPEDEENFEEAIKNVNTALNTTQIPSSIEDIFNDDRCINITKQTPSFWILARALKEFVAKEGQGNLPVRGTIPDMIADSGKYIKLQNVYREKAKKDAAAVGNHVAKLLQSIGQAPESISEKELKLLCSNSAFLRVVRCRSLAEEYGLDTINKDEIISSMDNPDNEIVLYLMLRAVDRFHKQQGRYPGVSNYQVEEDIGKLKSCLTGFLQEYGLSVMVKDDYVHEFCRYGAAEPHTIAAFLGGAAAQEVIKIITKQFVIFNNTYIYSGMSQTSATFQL

| ITEM SMILES | ASSAYED SYSTEM | IC50 |
| --- | --- | --- |
| Nc1ncnc2c1c(C#Cc1ccccc1S(N)(=O)=O)cn2[C@@H]1O[C@H](CNS(N)(=O)=O)[C@@H](O)[C@H]1O | NAE (heterodimer of APPBP1 and UBA3) (Homo sapiens (Human), UniProt Q8TBC4) | 0.0056 µM |
| Nc1ncnc2c1c(C#Cc1c(F)cc(N3CCC(=O)CC3)cc1F)cn2[C@@H]1O[C@H](CNS(N)(=O)=O)[C@@H](O)[C@H]1O | NAE (heterodimer of APPBP1 and UBA3) (Homo sapiens (Human), UniProt Q8TBC4) | 0.0043 µM |
| Nc1ncnc2c1c(C#Cc1c(F)cc(N3CC[C@@H](O)C3)cc1F)cn2[C@@H]1C[C@H](CNS(N)(=O)=O)[C@@H](O)[C@H]1O | NAE (heterodimer of APPBP1 and UBA3) (Homo sapiens (Human), UniProt Q8TBC4) | 0.0043 µM |
| Nc1ncnc2c1c(C#Cc1cccc3ccccc13)cn2[C@@H]1O[C@H](COS(N)(=O)=O)[C@@H](O)[C@H]1O | NAE (heterodimer of APPBP1 and UBA3) (Homo sapiens (Human), UniProt Q8TBC4) | 0.025 µM |
| Nc1ncnc2c1c(C#Cc1c(F)cc(N3CCC3)cc1F)cn2[C@@H]1C[C@H](CNS(N)(=O)=O)[C@@H](O)[C@H]1O | NAE (heterodimer of APPBP1 and UBA3) (Homo sapiens (Human), UniProt Q8TBC4) | 0.0068 µM |
| Nc1ncnc2c1c(C#CC1(c3ccccc3)CC1)cn2[C@@H]1O[C@H](CNS(N)(=O)=O)[C@@H](O)[C@H]1O | NAE (heterodimer of APPBP1 and UBA3) (Homo sapiens (Human), UniProt Q8TBC4) | 0.024 µM |

---

Below, each entry is listed with its recorded IC50.
target: NAE (heterodimer of APPBP1 and UBA3) (Homo sapiens (Human)); assay: Nedd8 conjugation inhibitory activity (AlphaScreen assay); assay type: biochemical; conditions: purified NAE, GST-UBC12, Biotin-Nedd8, ATP

| ITEM SMILES | IC50, µM |
| --- | --- |
| Nc1ncnc2c1c(C#Cc1c(F)cc(N3CC[C@@H](F)C3)cc1F)cn2[C@@H]1O[C@H](CNS(N)(=O)=O)[C@@H](O)[C@H]1O | 0.0071 |
| Cc1ccc(Cn2cc(-c3cn([C@@H]4C[C@H](COS(N)(=O)=O)[C@@H](O)C4)c4ncnc(N)c34)cn2)cc1C | 0.0065 |
| Nc1ncnc2c1c(C#Cc1cccc3c1S(=O)(=O)CC3)cn2[C@@H]1C[C@H](CNS(N)(=O)=O)[C@@H](O)[C@H]1O | 0.0043 |
| COc1cccc(OC)c1C#Cc1cn([C@@H]2C[C@H](CNS(N)(=O)=O)[C@@H](O)[C@H]2O)c2ncnc(N)c12 | 0.021 |
| COc1ccc2cccnc2c1C#Cc1cn([C@@H]2O[C@H](CNS(N)(=O)=O)[C@@H](O)[C@H]2O)c2ncnc(N)c12 | 0.011 |
| Nc1ncnc2c1c(C#Cc1c(F)cc(O)cc1F)cn2[C@@H]1O[C@H](CNS(N)(=O)=O)[C@@H](O)[C@H]1O | 0.0045 |

---

target: NAE (heterodimer of APPBP1 and UBA3) (Homo sapiens (Human)); test: Nedd8 conjugation inhibitory activity (AlphaScreen assay); type: biochemical; conditions: purified NAE, GST-UBC12, Biotin-Nedd8, ATP

| COMPOUND | ASSAYED SYSTEM | IC50 (µM) |
| --- | --- | --- |
| CN1CCOc2c1ccc(F)c2C#Cc1cn([C@@H]2O[C@H](CNS(N)(=O)=O)[C@@H](O)[C@H]2O)c2ncnc(N)c12 [Example 64] | NAE (heterodimer of APPBP1 and UBA3) (Homo sapiens (Human)) | 0.0094 |
| COc1ccccc1C#Cc1cn([C@@H]2O[C@H](CNS(N)(=O)=O)[C@@H](O)[C@H]2O)c2ncnc(N)c12 [Example 47] | NAE (heterodimer of APPBP1 and UBA3) (Homo sapiens (Human)) | 0.0093 |
| CCS(=O)(=O)c1cc(N2CCCC2)cc(F)c1C#Cc1cn([C@@H]2O[C@H](CNS(N)(=O)=O)[C@@H](O)[C@H]2O)c2ncnc(N)c12 [Example 70] | NAE (heterodimer of APPBP1 and UBA3) (Homo sapiens (Human)) | 0.013 |
| Nc1ncnc2c1c(C#Cc1nccc3ccccc13)cn2[C@@H]1O[C@H](CNS(N)(=O)=O)[C@@H](O)[C@H]1O [Example 11] | NAE (heterodimer of APPBP1 and UBA3) (Homo sapiens (Human)) | 0.0078 |
| CCOc1cccc(F)c1C#Cc1cn([C@H]2C[C@H](O)[C@@H](CNS(N)(=O)=O)O2)c2ncnc(N)c12 [Example 127] | NAE (heterodimer of APPBP1 and UBA3) (Homo sapiens (Human)) | 0.019 |
| Cc1ccccc1-c1nc(-c2cn([C@H]3C[C@H](O)[C@@H](COS(N)(=O)=O)O3)c3ncnc(N)c23)cs1 [Example 139] | NAE (heterodimer of APPBP1 and UBA3) (Homo sapiens (Human)) | 0.017 |
| Nc1ncnc2c1c(C#Cc1ccccn1)cn2[C@@H]1O[C@H](CNS(N)(=O)=O)[C@@H](O)[C@H]1O [Example 44] | NAE (heterodimer of APPBP1 and UBA3) (Homo sapiens (Human)) | 0.029 |
| Nc1ncnc2c1c(C#Cc1c(F)cc(N3CCC(O)CC3)cc1F)cn2[C@@H]1C[C@H](CNS(N)(=O)=O)[C@@H](O)[C@H]1O [Example 119] | NAE (heterodimer of APPBP1 and UBA3) (Homo sapiens (Human)) | 0.0042 |
| CCS(=O)(=O)c1cccc(F)c1C#Cc1cn([C@@H]2C[C@H](CNS(N)(=O)=O)[C@@H](O)[C@H]2O)c2ncnc(N)c12 [Example 142] | NAE (heterodimer of APPBP1 and UBA3) (Homo sapiens (Human)) | 0.009 |
| Nc1ncnc2c1c(C#Cc1ccccc1)cn2[C@H]1C[C@H](O)[C@@H](COS(N)(=O)=O)O1 [Example 134] | NAE (heterodimer of APPBP1 and UBA3) (Homo sapiens (Human)) | 0.018 |
| Nc1ncnc2c1c(C#Cc1ncccc1F)cn2[C@@H]1O[C@H](CNS(N)(=O)=O)[C@@H](O)[C@H]1O [Example 88] | NAE (heterodimer of APPBP1 and UBA3) (Homo sapiens (Human)) | 0.018 |
| CCOc1cc(N2CCOCC2)cc(F)c1C#Cc1cn([C@@H]2C[C@H](CNS(N)(=O)=O)[C@@H](O)[C@H]2O)c2ncnc(N)c12 [Example 112] | NAE (heterodimer of APPBP1 and UBA3) (Homo sapiens (Human)) | 0.015 |
| Nc1ncnc2c1c(C#Cc1c(F)cc(N3CCSCC3)cc1F)cn2[C@@H]1O[C@H](CNS(N)(=O)=O)[C@@H](O)[C@H]1O [Example 37] | NAE (heterodimer of APPBP1 and UBA3) (Homo sapiens (Human)) | 0.011 |

---

target: NAE (heterodimer of APPBP1 and UBA3) (Homo sapiens (Human)); assay: Nedd8 conjugation inhibitory activity (AlphaScreen assay); type: biochemical; conditions: purified NAE, GST-UBC12, Biotin-Nedd8, ATP

| ITEM SMILES | IC50, µM |
| --- | --- |
| Nc1ncnc2c1c(C#Cc1c(F)cc(N3CCOCC3)cc1F)cn2[C@@H]1C[C@H](CNS(N)(=O)=O)[C@@H](O)[C@H]1O | 0.0076 |
| CSc1cccc(F)c1C#Cc1cn([C@@H]2O[C@H](CNS(N)(=O)=O)[C@@H](O)[C@H]2O)c2ncnc(N)c12 | 0.0085 |
| NC(=O)c1cccc(COc2ccc(C#Cc3cn([C@@H]4O[C@H](CNS(N)(=O)=O)[C@@H](O)[C@H]4O)c4ncnc(N)c34)cc2)c1 | 0.018 |

---

biological target: NAE (heterodimer of APPBP1 and UBA3) (Homo sapiens (Human), UniProt Q8TBC4); test: Nedd8 conjugation inhibitory activity (AlphaScreen assay); format: biochemical; details: purified NAE, GST-UBC12, Biotin-Nedd8, ATP

| ITEM SMILES | IC50 (µM) |
| --- | --- |
| CCOc1cc(N2C3CCC2COC3)cc(F)c1C#Cc1cn([C@@H]2C[C@H](CNS(N)(=O)=O)[C@@H](O)[C@H]2O)c2ncnc(N)c12 | 0.013 |
| COc1cccc(OC)c1C#Cc1cn([C@@H]2O[C@H](CNS(N)(=O)=O)[C@@H](O)[C@H]2O)c2ncnc(N)c12 | 0.0096 |
| Nc1ncnc2c1c(C#Cc1c(F)cccc1OCC(F)(F)F)cn2[C@@H]1O[C@H](CNS(N)(=O)=O)[C@@H](O)[C@H]1O | 0.0038 |
| CSc1cccc(F)c1C#Cc1cn([C@@H]2C[C@H](CNS(N)(=O)=O)[C@@H](O)[C@H]2O)c2ncnc(N)c12 | 0.0083 |
| CCOc1cc(F)cc(F)c1C#Cc1cn([C@@H]2O[C@H](CNS(N)(=O)=O)[C@@H](O)[C@H]2O)c2ncnc(N)c12 | 0.0041 |
| CCSc1cccc(F)c1C#Cc1cn([C@@H]2C[C@H](CNS(N)(=O)=O)[C@@H](O)[C@H]2O)c2ncnc(N)c12 | 0.019 |
| Nc1ncnc2c1c(C#Cc1c(F)cc(OCn3cccn3)cc1F)cn2[C@@H]1C[C@H](CNS(N)(=O)=O)[C@@H](O)[C@H]1O | 0.0089 |
| N#Cc1cc(F)c(C#Cc2cn([C@@H]3O[C@H](CNS(N)(=O)=O)[C@@H](O)[C@H]3O)c3ncnc(N)c23)c(F)c1 | 0.0058 |
| Nc1ncnc2c1c(C#Cc1cccc3c1S(=O)(=O)CCC3)cn2[C@@H]1O[C@H](CNS(N)(=O)=O)[C@@H](O)[C@H]1O | 0.019 |
| CCCOc1cccc(F)c1C#Cc1cn([C@@H]2O[C@H](CNS(N)(=O)=O)[C@@H](O)[C@H]2O)c2ncnc(N)c12 | 0.0085 |
| COc1cncc(F)c1C#Cc1cn([C@@H]2O[C@H](CNS(N)(=O)=O)[C@@H](O)[C@H]2O)c2ncnc(N)c12 | 0.014 |
| Nc1ncnc2c1c(C#Cc1cccc3cccnc13)cn2[C@@H]1O[C@H](CNS(N)(=O)=O)[C@@H](O)[C@H]1O | 0.0054 |
| CCSc1ccccc1C#Cc1cn([C@@H]2O[C@H](CNS(N)(=O)=O)[C@@H](O)[C@H]2O)c2ncnc(N)c12 | 0.01 |
